Measured values drawn from patent US9932314B2 for this set.

IC50 values for the molecules below.
# tested-system: voltage-dependent T-type calcium channel subunit alpha-1G (Cav3.2) (Homo sapiens, UniProt O95180)
# Sequence (O95180 whole entry): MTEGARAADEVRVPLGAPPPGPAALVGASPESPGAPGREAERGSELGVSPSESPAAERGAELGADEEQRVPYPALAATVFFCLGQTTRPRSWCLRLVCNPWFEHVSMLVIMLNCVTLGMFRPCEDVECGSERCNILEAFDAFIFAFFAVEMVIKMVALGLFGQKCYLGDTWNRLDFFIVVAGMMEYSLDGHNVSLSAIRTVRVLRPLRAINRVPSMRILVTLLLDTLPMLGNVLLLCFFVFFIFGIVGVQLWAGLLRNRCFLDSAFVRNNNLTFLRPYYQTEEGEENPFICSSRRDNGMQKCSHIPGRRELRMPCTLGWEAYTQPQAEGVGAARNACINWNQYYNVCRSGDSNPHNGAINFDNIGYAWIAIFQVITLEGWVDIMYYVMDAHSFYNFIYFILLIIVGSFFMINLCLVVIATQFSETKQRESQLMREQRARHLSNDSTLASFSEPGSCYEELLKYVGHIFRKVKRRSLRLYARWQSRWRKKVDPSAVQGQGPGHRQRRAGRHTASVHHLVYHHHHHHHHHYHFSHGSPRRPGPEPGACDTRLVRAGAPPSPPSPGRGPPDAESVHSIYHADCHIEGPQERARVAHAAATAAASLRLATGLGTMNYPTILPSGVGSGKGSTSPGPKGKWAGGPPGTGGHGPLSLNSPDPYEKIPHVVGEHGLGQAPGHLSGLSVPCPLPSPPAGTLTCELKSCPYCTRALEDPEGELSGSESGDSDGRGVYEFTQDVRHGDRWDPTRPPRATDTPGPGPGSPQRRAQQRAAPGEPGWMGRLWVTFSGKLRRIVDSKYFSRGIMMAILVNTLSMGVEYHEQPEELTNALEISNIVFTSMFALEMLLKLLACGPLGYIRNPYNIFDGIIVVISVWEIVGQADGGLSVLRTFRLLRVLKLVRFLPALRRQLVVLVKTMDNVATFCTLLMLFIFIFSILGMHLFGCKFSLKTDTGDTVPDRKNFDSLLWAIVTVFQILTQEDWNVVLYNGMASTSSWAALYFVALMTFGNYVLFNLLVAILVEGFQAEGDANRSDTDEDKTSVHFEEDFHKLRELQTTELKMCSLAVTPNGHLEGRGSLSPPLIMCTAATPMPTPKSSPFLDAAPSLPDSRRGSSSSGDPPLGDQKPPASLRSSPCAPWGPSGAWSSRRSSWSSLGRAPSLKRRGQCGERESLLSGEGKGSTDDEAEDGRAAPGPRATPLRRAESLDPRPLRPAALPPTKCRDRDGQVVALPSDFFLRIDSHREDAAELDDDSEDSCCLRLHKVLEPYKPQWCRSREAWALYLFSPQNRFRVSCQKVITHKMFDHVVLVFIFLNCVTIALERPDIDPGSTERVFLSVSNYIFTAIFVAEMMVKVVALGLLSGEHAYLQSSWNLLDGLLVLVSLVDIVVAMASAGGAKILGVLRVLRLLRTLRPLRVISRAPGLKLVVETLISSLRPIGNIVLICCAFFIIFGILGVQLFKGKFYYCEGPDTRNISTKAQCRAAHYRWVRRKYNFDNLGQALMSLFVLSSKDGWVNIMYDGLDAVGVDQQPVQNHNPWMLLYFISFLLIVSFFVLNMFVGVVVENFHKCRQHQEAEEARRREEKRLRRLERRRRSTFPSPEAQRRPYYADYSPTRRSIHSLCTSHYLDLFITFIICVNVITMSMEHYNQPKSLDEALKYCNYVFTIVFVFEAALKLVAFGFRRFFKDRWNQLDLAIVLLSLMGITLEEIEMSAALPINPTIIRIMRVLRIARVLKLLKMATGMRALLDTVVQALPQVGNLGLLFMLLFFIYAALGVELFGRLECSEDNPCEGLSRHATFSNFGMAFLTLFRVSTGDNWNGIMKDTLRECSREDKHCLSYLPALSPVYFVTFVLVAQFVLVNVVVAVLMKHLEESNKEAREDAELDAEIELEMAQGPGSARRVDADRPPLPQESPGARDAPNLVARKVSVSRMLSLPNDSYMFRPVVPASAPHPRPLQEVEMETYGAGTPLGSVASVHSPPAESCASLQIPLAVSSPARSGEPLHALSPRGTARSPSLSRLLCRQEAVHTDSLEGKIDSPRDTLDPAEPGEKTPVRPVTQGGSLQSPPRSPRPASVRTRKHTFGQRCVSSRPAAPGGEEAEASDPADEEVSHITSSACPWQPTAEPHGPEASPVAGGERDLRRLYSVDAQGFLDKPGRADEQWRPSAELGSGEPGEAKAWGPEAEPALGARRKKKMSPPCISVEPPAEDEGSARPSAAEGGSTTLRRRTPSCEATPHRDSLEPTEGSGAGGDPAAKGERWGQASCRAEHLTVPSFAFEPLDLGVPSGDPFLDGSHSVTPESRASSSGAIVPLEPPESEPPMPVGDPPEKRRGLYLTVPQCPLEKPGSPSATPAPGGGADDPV
# experimental-protocol: FLIPR calcium flux assay, HEK293 cells recombinantly expressing Cav3.2
# protocol-conditions: Cav3.2-channel, Fluo-4-AM, 3 min incubation, stimulation with 10 mM CaCl2
Could you give me the number in nM? Just the number is fine.

State its IC50: N#Cc1ccc(Cn2ccc(NC(=O)Cc3ccc(OC4COC4)cc3)n2)cc1 [Example 251]
303

Please give the documented IC50 of N#Cc1ccc(Cn2ccc(NC(=O)Cc3ccc(N4CCC(F)(F)C4)cc3)n2)nc1 [Example 91]
23

Provide measured IC50 value, entry: N#Cc1ccc(Cn2ccc(NC(=O)Cc3ccc(N4CC[C@@H](F)C4)cc3)n2)cc1 [Example 69]
16

Specify measured IC50 for CC1(COc2ccc(CC(=O)Nc3ccn(Cc4cc(F)c(C#N)c(F)c4)n3)cc2)CC(F)(F)C1 [Example 364] .
62

Please give measured IC50 of the following entry: N#Cc1cc(Cn2ccc(NC(=O)Cc3ccc(F)cc3OCC(F)(F)F)n2)ccc1F [Example 332]
600

State its IC50 for this molecule: Cc1cn(C)c2ccc(CC(=O)Nc3ccn(Cc4ccc(F)c(F)c4)n3)cc12 [Example 260]
3.1

Respond only with IC50 recorded for Cn1ncc2cc(CC(=O)Nc3ccn(Cc4cc(F)c(C#N)c(F)c4)n3)ccc21 [Example 344]
52

* * *

# tested-system: voltage-dependent T-type calcium channel subunit alpha-1G (Cav3.2) (Homo sapiens, UniProt O95180)
# experimental-protocol: FLIPR calcium flux assay, HEK293 cells recombinantly expressing Cav3.2
# protocol-conditions: Cav3.2-channel, Fluo-4-AM, 3 min incubation, stimulation with 10 mM CaCl2
pIC50: −log10 of the molar value.
Lab note: anything with pIC50 at or over 7 counts as yes; the rest go in no.

Reference set (4 entries):
Tell me whether pIC50 is at least 7 here: O=C(Cc1ccc(OC2CC2)cc1)Nc1ccn(Cc2ccc(F)cc2)n1 [Example 63]
yes

Could you tell me if the measured pIC50 of N#Cc1ccc(Cn2ccc(NC(=O)Cc3ccc(N4CC(F)C4)cc3)n2)cc1 [Example 72] reaches 7 or more?
yes

Please indicate if the recorded pIC50 for Cc1ccc(Cn2ccc(NC(=O)Cc3ccc(N4CCCC4)nc3)n2)nc1C#N [Example 373] meets or exceeds 7.
no

Please tell me: is the molecule CN(C)c1ccc(CC(=O)Nc2ccn(Cc3ccc(C(C)(C)C)cc3)n2)cc1 [Example 18] at or over 7 in terms of pIC50?
yes

Next molecule, please.
Form field: pIC50 at least 7? Entry: CCc1ccc(Cn2ccc(NC(=O)Cc3ccc(N(C)C)nc3)n2)cc1 [Example 35]
yes

* * *

# tested-system: voltage-dependent T-type calcium channel subunit alpha-1G (Cav3.2) (Homo sapiens, UniProt O95180)
# experimental-protocol: FLIPR calcium flux assay, HEK293 cells recombinantly expressing Cav3.2
# protocol-conditions: Cav3.2-channel, Fluo-4-AM, 3 min incubation, stimulation with 10 mM CaCl2
pIC50: −log10 of the molar value.
Definition: the class of an entry is the range in b0: < 7; b1: ≥ 7 and < 8; b2: ≥ 8 that contains its pIC50.

Please classify: `Cn1ccc2cc(CC(=O)Nc3ccn(Cc4ccc(F)c(F)c4)n3)ccc21`
b2

// bin(item) where item = `O=C(Cc1ccc2cccnc2c1)Nc1ccn(Cc2ccc(F)c(F)c2)n1`
b1

Hi, small favor: classify `CC1(c2ccc(CC(=O)Nc3ccn(Cc4ccc(C#N)cn4)n3)cc2)COC1` by its pIC50 when you get a moment.
b0

Which pIC50 band matches `O=C(Cc1ccc(-c2ccccn2)cc1)Nc1ccn(Cc2ccc(F)cc2)n1` ?
b1

Given `N#Cc1ccc(Cn2ccc(NC(=O)Cc3ccc(N4CC[C@@H](F)C4)nc3)n2)nc1` , name the class its pIC50 places it in.
b0

***
For `CC1(C)Cc2cc(CC(=O)Nc3ccn(Cc4ccc(C#N)cn4)n3)ccc2O1` , which pIC50 bin applies?
b0

Input `N#Cc1ccc(Cn2ccc(NC(=O)Cc3ccc(C4CC4)nc3)n2)cc1F` ; output its category
b0

Looking at `Cc1nc2ccc(CC(=O)Nc3ccn(Cc4ccc(F)c(F)c4)n3)cc2[nH]1` , which class would you pick?
b0

* * *

# tested-system: voltage-dependent T-type calcium channel subunit alpha-1G (Cav3.2) (Homo sapiens, UniProt O95180)
# experimental-protocol: FLIPR calcium flux assay, HEK293 cells recombinantly expressing Cav3.2
# protocol-conditions: Cav3.2-channel, Fluo-4-AM, 3 min incubation, stimulation with 10 mM CaCl2
parameter: pIC50
Units for pIC50: none; it is -log10 of a concentration expressed in mol/L.

Please report pIC50 for the following compound: `Cn1ccc2cc(CC(=O)Nc3ccn(Cc4ccc(C#N)cn4)n3)ccc21`
7.15

New cases:
Find the measured pIC50 of `CC1(C)Cc2ccc(CC(=O)Nc3ccn(Cc4ccc(C#N)cn4)n3)cc2O1` and report it.
6.67

Could you please provide reported pIC50 for `N#Cc1c(F)cc(Cn2ccc(NC(=O)Cc3ccc(C4(C(F)(F)F)CC4)cc3)n2)cc1F` ? Thanks!
7.16

For the compound `CN(c1ccc(CC(=O)Nc2ccn(Cc3ccc(C#N)cn3)n2)cn1)C1CC1` , give its reported pIC50.
6.25

* * *

# tested-system: voltage-dependent T-type calcium channel subunit alpha-1G (Cav3.2) (Homo sapiens, UniProt O95180)
# experimental-protocol: FLIPR calcium flux assay, HEK293 cells recombinantly expressing Cav3.2
# protocol-conditions: Cav3.2-channel, Fluo-4-AM, 3 min incubation, stimulation with 10 mM CaCl2
parameter: pIC50
pIC50 here: minus log base 10 of the concentration, concentration in moles per litre.

The cases that follow already have their pIC50 on record.
Give reported pIC50 value for `N#Cc1ccc(Cn2ccc(NC(=O)Cc3ccc(C4(C#N)CC4)cc3)n2)nc1`
6.61

Recall and state the measured pIC50 for `CN(C)c1ccc(CC(=O)Nc2ccn(Cc3ccc(F)c(Cl)c3)n2)cc1` .
8.40

Next:
Name the recorded pIC50 of the item `N#Cc1ccc(Cn2ccc(NC(=O)Cc3ccc(OCC4CC4)c(OC(F)(F)F)c3)n2)nc1` in your answer.
7.36

Consider the compound `COc1ccc(Cn2ccc(NC(=O)Cc3ccc(C(C)C)cc3)n2)nc1` and give its recorded pIC50.
7.06

Retrieve pIC50 measured for `Cc1cncnc1-c1ccc(CC(=O)Nc2ccn(Cc3ccc(F)cc3)n2)cc1` and print it.
7.32

Look up and report measured pIC50 for this entry: `Cc1ccc(Cn2ccc(NC(=O)Cc3ccc4c(c3)c(C)cn4C)n2)nc1C#N`
7.19

Fill in pIC50 for record `N#Cc1ccc(Cn2ccc(NC(=O)Cc3ccc(N4CC(F)(F)C4)cc3)n2)cc1`
7.96

Note pIC50 for the compound shown: `COc1ccc(Cn2ccc(NC(=O)Cc3ccc(N4CC(F)(F)C4)nc3)n2)cc1`
6.87

* * *

# tested-system: voltage-dependent T-type calcium channel subunit alpha-1G (Cav3.2) (Homo sapiens, UniProt O95180)
# experimental-protocol: FLIPR calcium flux assay, HEK293 cells recombinantly expressing Cav3.2
# protocol-conditions: Cav3.2-channel, Fluo-4-AM, 3 min incubation, stimulation with 10 mM CaCl2
pIC50: −log10 of the molar value.
Please note: Met applies when pIC50 is 7 or greater, and Not met applies otherwise.

Can `COc1ccc(Cn2ccc(NC(=O)Cc3ccc(N(C)C)cc3)n2)nc1` be said to have pIC50 at or above 7?
Not met

Reported pIC50 reaches at least 7 for `CC(C)Cc1ccc(CC(=O)Nc2ccn(Cc3ccc(F)cc3)n2)cc1` ?
Met

Entry `COCCN(C)c1ccc(CC(=O)Nc2ccn(Cc3ccc(C#N)cc3)n2)cn1` : is its pIC50 no less than 7?
Not met

Does the compound `N#Cc1cc(Cn2ccc(NC(=O)Cc3ccc(OCC(F)(F)F)c(C4CC4)c3)n2)ncc1F` have recorded pIC50 that is 7 or more?
Met

// inclusive: pIC50 at least 7? input: CO[C@H](C)c1ccc(CC(=O)Nc2ccn(Cc3ccc(F)c(F)c3)n2)cc1 (single isomer, unassigned)
Met

In plain terms: is recorded pIC50 at least 7 for `Cn1ncc2cc(CC(=O)Nc3ccn(Cc4ccc(C#N)cc4)n3)ccc21` ?
Met

Tell me whether pIC50 is at least 7 here: `CC(C)c1ccc(CC(=O)Nc2ccn(Cc3ccc(Cl)cc3)n2)cc1`
Met

Dear colleague, could you confirm whether `CN(CC(F)F)c1ccc(CC(=O)Nc2ccn(Cc3ccc(C#N)cn3)n2)cn1` has pIC50 at or above 7?
Not met

Is pIC50 for `CN(C)c1ccc(CC(=O)Nc2ccn(Cc3ccc(Cl)c(F)c3)n2)cc1` at or above 7?
Met

# check: pIC50 of `Cc1ccc(Cn2ccc(NC(=O)Cc3ccc(C(C)C)cc3)n2)nc1` is greater than or equal to 7
Met

Others:
Check the entry `COCCOc1ccc(Cn2ccc(NC(=O)Cc3ccc(C(C)C)cc3)n2)nc1` : does pIC50 equal or exceed 7?
Not met

Determine whether measured pIC50 meets or exceeds 7 for `Cc1cc(CC(=O)Nc2ccn(Cc3ccc(F)c(C#N)n3)n2)cc(C)c1OCC(F)(F)F`
Met
